activity at 100 µM: recorded values
test system: M. mycetomatis genome strain MM55; test: CLSI M38-A2 based in vitro susceptibility screening (XTT or resazurin), growth at fixed concentration; assay type: cell-based, Madurella mycetomatis; conditions: Madurella mycetomatis, 100 uM, replicate (first column); read-out: Percentage survival at 100um, 100 uM A
# number only, unit % dropped from output

Worked examples, 4 compounds total:
| Compound | activity at 100 µM, % |
| --- | --- |
| O=C(CP(=O)(O)O)NCCc1cccc(Oc2ccccc2)c1 [MMV1579787] | -0.0188 |
| Cc1cc(Nc2ccc(F)cc2)nc(SCc2nc3ccccc3[nH]2)n1 [MMV1582498] | 67.6 |
| O=[N+]([O-])/C(Br)=C/c1ccc(Br)o1 [MMV1645051] | -0.809 |
| COC(=O)Nc1nc2c(C)cccc2[nH]1 [MMV1782387] | 4.59 |

Which activity at 100 µM reading was recorded for the compound CCCNc1ccc(S(=O)(=O)Nc2cc(C)on2)cc1 [MMV1782216] ? 83.4

Try the compound CNc1nc(=O)[nH]cc1F [MMV1782388] 99.3

###

tested on: M. mycetomatis genome strain MM55; assay: CLSI M38-A2 based in vitro susceptibility screening (XTT or resazurin), growth at fixed concentration; assay type: cell-based, Madurella mycetomatis; conditions: Madurella mycetomatis, 100 uM, replicate 3; read-out: Percentage survival at 100um, 100 uM A (third replicate column)
Observable: activity at 100 µM
Answers without a unit are incomplete; give the number and then its unit.

| Molecule | activity at 100 µM |
| --- | --- |
| CCOC(=O)/C=C/[C@H](C[C@@H]1CCNC1=O)NC(=O)[C@@H](CC(=O)[C@@H](NC(=O)c1cc(C)on1)C(C)C)Cc1ccc(F)cc1 [MMV1580491] | 95.4% |
| COc1ccc2nc(-c3ccccc3)cc(O)c2c1 [MMV011565] | 79.6% |
| Cc1ccn2c(C(=O)NCc3ccccc3)c(C)nc2c1 [MMV1579847] | 57.5% |
| NC(=O)c1cnccn1 [MMV003249] | 56.3% |
| Cc1cc(C)n2nc(C(=O)NS(=O)(=O)c3c(C)cccc3OC(F)(F)F)nc2n1 [MMV1782402] | 82% |
| CCCCCc1ccc(C(=O)NCCn2cc(CCCCCc3cnc(N)[nH]3)nn2)cc1 [MMV1580847] | 32.1% |

Which measured activity at 100 µM value corresponds to NCc1ccc(S(N)(=O)=O)cc1 [MMV002665] ? 95.8%

Please answer likewise for Oc1c(C(Nc2nc3ccccc3s2)c2ccc(OC(F)F)cc2)ccc2cccnc12 (stereo not shown) [MMV019724] 20.9%

And CCc1nc2ccc(Cl)cn2c1C(=O)NCc1ccc(N2CCC(c3ccc(OC(F)(F)F)cc3)CC2)cc1 [MMV687696] ? 80.3%

Queued: CCC(C)NCC(O)Cn1c2ccc(Cl)cc2c2cc(Cl)ccc21 (stereo not shown) [MMV1578570] 5.34%

Please answer likewise for CCOCc1nc2c(N)nc3ccccc3c2n1CC(C)(C)O [MMV690547] 87.9%

Another: CCC(CC)[C@H](NC(C)=O)[C@@H]1[C@H](O)[C@@H](C(=O)O)C[C@H]1NC(=N)N [MMV1593511] 88.3%

Then this molecule: N=c1n(CCN2CCCCC2)c2ccccc2n1CC(O)COc1ccc(Cl)cc1Cl (stereo not shown) [MMV394033] -0.0169%

Now the molecule CS(=O)(=O)c1ccc(Oc2ccc(Cl)cc2)cc1 [MMV1634404] 59%

Next record, please: COc1ccc2sc3c(c2c1)NC(C)CNC3=O (stereo not shown) [MMV1782115] 1.07%

Now consider Cc1nc2ccc(Oc3ccccc3)cc2c2c1CCN2CCc1ccccc1 [MMV1634399] and answer again. 1.92%

Then what about the molecule C[C@H](NC(CC(=O)c1ccccc1C(F)(F)F)C(=O)O)c1ccccc1 (stereo partly shown) [MMV1579778] ? 88.1%
